FYI, the data here is from ChEMBL document CHEMBL5131397.

experimentSummary: Intrinsic clearance in human hepatocytes assessed per million cells
Type: ADME, cell-based, Hepatocyte
testSettings: read-out: CLH
I'd be grateful if you could share measured log10 of hepatocyte CLint for these entries.
Please keep in mind that the values are log10 of hepatocyte CLint expressed in µL/min/1e6 cells.

Incoming: # log10 of hepatocyte CLint lookup, item O=C(Cc1ccccc1F)Nc1nc(-c2ccccc2)cs1
Outgoing: 2.01

Incoming: // log10 of hepatocyte CLint lookup, key: O=C(Cc1ccccc1)Nc1nc(-c2ccccc2)cs1
Outgoing: 2.10

Incoming: Any idea what its log10 of hepatocyte CLint is? The compound is CC1(C)CC1(C(=O)Nc1ccn(-c2ccccc2)n1)c1ccccc1 (stereo not given)
Outgoing: 1.70

Incoming: Suppose we examine the compound O=C(Nc1ccn(-c2ccccc2)n1)C1(c2ccccc2)COC1 ; what log10 of hepatocyte CLint value has been reported?
Outgoing: 1.49

Incoming: // lookup log10 of hepatocyte CLint for Cc1ccccc1C1(C(=O)Nc2ccn(-c3cncc(F)c3)n2)CC1
Outgoing: 1.60

Incoming: # log10 of hepatocyte CLint lookup, item N#Cc1ccccc1C1(C(=O)Nc2ccn(-c3cncc(F)c3)n2)CC1
Outgoing: 0.70

Incoming: Value lookup for log10 of hepatocyte CLint; key = O=C(Nc1ccn(-c2cncc(F)c2)n1)C1(c2cc(F)ccc2F)CC1
Outgoing: 0.78

Incoming: For the compound shown here, O=C(Nc1ccn(-c2ccccc2)n1)C1(c2ccccc2F)CC1 , give the reported log10 of hepatocyte CLint.
Outgoing: 1.48

Incoming: Query (compound): O=C(Nc1ccn(-c2ccc(F)nc2)n1)C1(c2ccccc2F)CC1 ; field requested: log10 of hepatocyte CLint
Outgoing: 0.78

Incoming: What does the record list as log10 of hepatocyte CLint for O=C(Nc1ccn(-c2cncc(F)c2)n1)C1(c2ccccc2Cl)CC1 ?
Outgoing: 0.90

Incoming: Which log10 of hepatocyte CLint reading was recorded for the compound C[C@@H](C(=O)Nc1ccn(-c2ccccc2)n1)c1ccccc1 ?
Outgoing: 1.75

Incoming: # input compound: O=C(Nc1ccn(-c2ncns2)n1)C1(c2ccccc2F)CC1 ; wanted: its log10 of hepatocyte CLint
Outgoing: 1.15

Incoming: Suppose we examine the compound O=C(Cc1ccccc1)Nc1ccn(-c2ccccc2)n1 ; what log10 of hepatocyte CLint value has been reported?
Outgoing: 1.95

Incoming: // query log10 of hepatocyte CLint value for entry CC(C)(C(=O)Nc1ccn(-c2ccccc2)n1)c1ccccc1
Outgoing: 1.26

Incoming: Please look up its log10 of hepatocyte CLint: O=C(Nc1ccn(-c2ccncn2)n1)C1(c2ccccc2F)CC1
Outgoing: 1.15

Incoming: Sample O=C(Nc1ccn(-c2cncc(F)c2)n1)C1(c2cccc(F)c2)CC1 — what was its log10 of hepatocyte CLint?
Outgoing: 0.90

Incoming: Returns the measured log10 of hepatocyte CLint for the input compound. Input: O=C(Cc1ccccc1F)Nc1cnn(-c2ccccc2)n1
Outgoing: 2.00

Incoming: Request the reported log10 of hepatocyte CLint associated with O=C(Nc1ccn(-c2cncc(F)c2)n1)C1(c2ccccc2F)CC1
Outgoing: 1.00

Incoming: What value of log10 of hepatocyte CLint has been reported for the following compound? O=C(Nc1ccn(-c2cncc(F)c2)n1)C1(c2cccc(F)c2F)CC1
Outgoing: 0.78

###

experimentSummary: Intrinsic clearance in human hepatocytes assessed per million cells
Assay type: ADME, cell-based, Hepatocyte
testSettings: read-out: CLH
readoutType: hepatocyte CLint (µL/min/1e6 cells)
Answer format: numeric, µL/min/1e6 cells implied, no suffix.

Incoming: // lookup hepatocyte CLint for O=C(Nc1ccn(-c2ccccc2)n1)C1(c2ccccc2)CC1
Outgoing: 38

Incoming: Query (compound): O=C(Nc1ccn(-c2cncc(F)c2)n1)C1(c2ccc(Cl)cc2)CC1 ; field requested: hepatocyte CLint
Outgoing: 5

Incoming: I would be grateful if you could share the reported hepatocyte CLint for N#Cc1ccc(C2(C(=O)Nc3ccn(-c4cncc(F)c4)n3)CC2)cc1 .
Outgoing: 5

Incoming: # input compound: O=C(Cc1ccccc1F)Nc1ccn(-c2ccccc2)n1 ; wanted: its hepatocyte CLint
Outgoing: 55

Incoming: Any idea what its hepatocyte CLint is? The compound is O=C(Nc1ccn(-c2cncc(F)c2)n1)C1(c2c(F)cccc2F)CC1
Outgoing: 4

Incoming: Any idea what hepatocyte CLint was measured for COc1ccc(C2(C(=O)Nc3ccn(-c4cncc(F)c4)n3)CC2)cc1 ?
Outgoing: 11
